Test system: AD38 cells
TEST DESCRIPTION: Viability of AD38 cells, Promega CellTiter-Glo
Assay type: cell-based
COND: 6 days incubation, controls being 100%, Table 6, compounds of Group 4
MEASURE: AD38 Viability Normalized Result (CPAM/DMSO %) at 10 μM
Quick note: give the figure in %, leave out the unit.

// returns reported AD38 Viability Normalized Result (CPAM/DMSO %) at 10 μM for input N#Cc1ccc(-c2ncc(CNC(=O)c3ccc4c(CC5CCOCC5)c[nH]c4c3)s2)c(F)c1 [Compound C18-02]
106

Now this one: O=C(NCc1cnc(C(F)(F)F)s1)c1ccc2c(C3CCCCC3)c[nH]c2c1 [Compound C19-01]
79

Now this one: CC(C)c1cc(=O)[nH]c2cc(C(=O)NCc3cnc(C(F)(F)F)s3)ccc12 [Compound C3-01]
105

Now this one: Cc1[nH]c2cc(C(=O)NCc3cnc(C(F)(F)F)s3)ccc2c1C1CCCCC1 [Compound C20-01]
47

Now this one: N#Cc1ccc(-c2ncc(CNC(=O)c3ccc4c(c3)NC(=O)C43CCCCC3)s2)c(F)c1 [Compound C6-02]
91

Now this one: Cc1cc(=O)[nH]c2cc(C(=O)NCc3cnc(C(F)(F)F)s3)ccc12 [Compound C2-01]
113

Now this one: Cc1c[nH]c2cc(C(=O)NCc3cnc(C(F)(F)F)s3)ccc12 [Compound C14-01]
113

Now this one: N#Cc1ccc(-c2ncc(CNC(=O)c3ccc4cc[nH]c4c3)s2)c(F)c1 [Compound C13-02]
105
